# Tested on: Quadruplex DNA
# testDescription: Stabilization of c-MYC G4 quadruplex DNA Pu22 (unknown origin) assessed as change in melting temperature at 2 uM by CD spectroscopy
# Type: nucleic-acid assay
measuredMetric: ΔTm (°C)
The response must be a number in °C with no trailing unit.

CCn1c2ccccc2c2cc(-c3nc(-c4ccc(N5CCN(C)CC5)cc4)c(-c4ccc(N5CCN(C)CC5)cc4)n3-c3ccc(OCCOCCO)cc3)ccc21    20.8
CCn1c2ccccc2c2cc(-c3nc(-c4ccc(N5CCN(C)CC5)cc4)c(-c4ccc(N5CCN(C)CC5)cc4)n3-c3ccc(OCCCO[C@@H]4O[C@H](CO)[C@H](O)[C@H](O)[C@H]4O)cc3)ccc21 (single isomer, unassigned)    16.9

As a next step, examine the molecule that follows.
ΔTm measured on CCn1c2ccccc2c2cc(-c3nc(-c4ccc(N5CCN(C)CC5)cc4)c(-c4ccc(N5CCN(C)CC5)cc4)n3CCOCCOC(C)=O)ccc21 = 10.4

Data provenance is ChEMBL document CHEMBL5104180.
